Listing of recorded apparent KD of MS2 coat protein by entry.
test system: MS2 coat protein; experiment: apparent KD of MS2 coat protein; designed switch direction (-1 OFF switch, 1 ON switch): 1; higher = weaker reporter binding; settings: input ligand: none
OBSERVATION_TYPE: apparent KD of MS2 coat protein (nM)

• GUGGUCCUCACAGGAUAUCAGCGGCCUUCACGCUGAGAAGGGUGACUGGGCUACAAGGCUAUAGACAUGAGGAUCACCCAUGUA [Direbe] (Eterna round: R96, puzzle: Same State NG 1) = 194
• GUGGAGAAUUAAGGAUAUUGAAUACAUAUGUUUAACAUGAGGAUCACCCAUGUGGGUUGCGGUAUCGAGAAGGUAAAUUACUGG [salish99_SSNG2_r04_033] (Eterna round: R96, puzzle: Same State NG 2) = 110
• AAACGGCCGAACGGAGGGCCACAUGAGGAUCACCCAUGUACAUAGGAUAUCACGCCAACGAAGCGUGAGAAGGGUGAUUAAAAC [Anriusxees] (Eterna round: R96, puzzle: Same State NG 3) = 104
